Values compiled from patent US12077503B2.

Tested on: barnyardgrass (Echinochloa crus-galli)
Test: Test G Pre-Emergence Protocol
Assay type: in vivo
Conditions: Echinochloa crus-galli, pre-emergence, 312 h, 62.5 g ai/ha, evaluated after 13 days, 100=total damage to plant, 0=no damage to plant, read-out: Barnyardgrass damage rating
METRIC: pest or weed control at 62.5 g/ha (%)
Supply the numeric figure in %, leaving out any unit text.

>  <COMPOUND>
CON1C[C@H](c2ccc(F)c(F)c2)[C@@H](C(=O)Nc2ccc(F)c(F)c2F)C1=O

>  <TARGET SYSTEM>
barnyardgrass (Echinochloa crus-galli)

>  <UNIT>
%

>  <MEAS VALUE>
80

$$$$

Problem: Which pest or weed control at 62.5 g/ha value belongs to CN1C[C@H](c2cccc(C(F)(F)F)c2)[C@@H](C(=O)Nc2cnccc2F)C1=O (racemic) ?
Solution: 0

Problem: Which pest or weed control at 62.5 g/ha value belongs to CN1C[C@@H](c2cc(Br)cc(Oc3ccccc3)c2)[C@H](C(=O)Nc2cccc(F)c2F)C1=O (racemic) ?
Solution: 0

Problem: Which pest or weed control at 62.5 g/ha value belongs to CSc1ccncc1NC(=O)[C@H]1C(=O)N(C)C[C@@H]1c1cccc(C(F)(F)F)c1 (racemic) ?
Solution: 10

Problem: Which pest or weed control at 62.5 g/ha value belongs to Cc1c(F)cccc1NC(=O)[C@@H]1C(=O)N(C)C[C@H]1c1cccc(C(C)(C)F)c1 (racemic) ?
Solution: 80

Problem: Which pest or weed control at 62.5 g/ha value belongs to CN1C[C@H](c2cccc(C(F)(F)F)c2)[C@@H](C(=O)Nc2cnccc2[N+](=O)[O-])C1=O (racemic) ?
Solution: 0
